Target: Fn14-TWEAK binding (Homo sapiens, UniProt Q9NP84)
Construct: the human Fc fragment-tagged Fn14 extracellular domain (R&D Systems) was captured; purchased R&D Systems (Fn14-Fc); Peprotech (recombinant TWEAK)
Sequence (Q9NP84 28-80 limits assumed): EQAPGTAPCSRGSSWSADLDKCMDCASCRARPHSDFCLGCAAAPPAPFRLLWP
Assay: Double sandwich ELISA small molecule screening of TWEAK binding to captured Fn14-Fc
Details: Table 3, first round of screening, 25 μM, average of duplicate; read-out: % Reduction in TWEAK Binding, Average
Measured inhibition at 25 µM by item
Respond with the bare value in %.

Look over these answered cases.
{"compound": "NC(=O)C1CCCN(c2nc3c(-c4ccccc4)csc3c(=O)[nH]2)C1 (stereo not shown) [Compound Z250-1266]", "experimental.readout": "inhibition at 25 µM", "measured": 11.8}
{"compound": "Cc1cc(C2CCCN2C(=O)c2cc(-c3ccc4c(c3)OCO4)on2)on1 (stereo not shown) [Compound J004-1091]", "experimental.readout": "inhibition at 25 µM", "measured": 15}
{"compound": "O=C(NCc1cccnc1)C(=O)NCc1n[nH]c(=O)c2ccccc12 [Compound F044-0083]", "experimental.readout": "inhibition at 25 µM", "measured": 11}

From here, focus on the item given below.
Q: So what does the record say about inhibition at 25 µM for Cc1ccc(-c2csc3c(=O)[nH]c(N4CCCC(C(N)=O)C4)nc23)cc1 (stereo not shown) [Compound Z250-1348] ?
Result: 13.3
